target: T1, IL-3 receptor (human, UniProt P26951 19-378; P32927 17-897); assay: competition with radiolabeled IL-3 for binding to cells; NC: No competition was observed for the particular mutein preparation
T1 construct: whole, on cells; also called ILK3 receptor
T1 sequence (P26951 19-378, chain 1 of 2): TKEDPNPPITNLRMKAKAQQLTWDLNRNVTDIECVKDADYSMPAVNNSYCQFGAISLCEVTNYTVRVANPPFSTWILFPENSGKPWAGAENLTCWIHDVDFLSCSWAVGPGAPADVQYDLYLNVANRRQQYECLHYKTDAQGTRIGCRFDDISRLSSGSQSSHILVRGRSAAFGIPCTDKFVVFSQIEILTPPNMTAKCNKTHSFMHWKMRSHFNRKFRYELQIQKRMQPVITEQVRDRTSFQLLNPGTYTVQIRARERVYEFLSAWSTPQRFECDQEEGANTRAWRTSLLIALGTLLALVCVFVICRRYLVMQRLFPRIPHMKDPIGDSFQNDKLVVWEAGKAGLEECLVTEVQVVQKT
T1 sequence (P32927 17-897, chain 2 of 2): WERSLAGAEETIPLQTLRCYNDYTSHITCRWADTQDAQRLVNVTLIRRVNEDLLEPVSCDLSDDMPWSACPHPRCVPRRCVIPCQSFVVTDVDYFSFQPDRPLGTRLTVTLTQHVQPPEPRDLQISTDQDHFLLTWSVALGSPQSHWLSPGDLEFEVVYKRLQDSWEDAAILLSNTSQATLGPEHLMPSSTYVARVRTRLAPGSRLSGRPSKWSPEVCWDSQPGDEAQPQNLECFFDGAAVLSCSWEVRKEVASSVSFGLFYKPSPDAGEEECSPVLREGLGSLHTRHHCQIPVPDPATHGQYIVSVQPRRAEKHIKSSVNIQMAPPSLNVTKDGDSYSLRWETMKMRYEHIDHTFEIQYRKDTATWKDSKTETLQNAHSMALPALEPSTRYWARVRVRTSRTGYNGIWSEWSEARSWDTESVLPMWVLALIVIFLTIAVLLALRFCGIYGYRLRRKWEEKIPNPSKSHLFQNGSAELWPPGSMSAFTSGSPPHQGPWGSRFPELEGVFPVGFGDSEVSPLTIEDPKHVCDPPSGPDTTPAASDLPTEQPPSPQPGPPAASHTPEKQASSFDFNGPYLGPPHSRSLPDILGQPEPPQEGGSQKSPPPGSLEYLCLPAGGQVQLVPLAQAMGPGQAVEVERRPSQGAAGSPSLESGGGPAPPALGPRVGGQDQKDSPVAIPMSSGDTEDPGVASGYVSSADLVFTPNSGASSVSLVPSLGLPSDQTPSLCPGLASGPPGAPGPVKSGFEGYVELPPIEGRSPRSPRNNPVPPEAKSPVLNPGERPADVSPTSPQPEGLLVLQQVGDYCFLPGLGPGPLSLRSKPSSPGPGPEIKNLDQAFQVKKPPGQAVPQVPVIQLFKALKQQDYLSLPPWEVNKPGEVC
PARAMETER MEASURED: binding result

BINDER: hIL-3 substitution mutant 1481 (Glu43Asp44→Lys43Arg44) (ligand, also called 43ED→KR; not shown: heterologous N-terminal leader of the E. coli fusion (pGB/IL-336: 12 aa; pGB/IL-339: 15 aa)) APMTQTTPLKTSWVNCSNMIDEIITHLKQPPLPLLDFNNLNGKRQDILMENNLRRPNLEAFNRAVKSLQNASAIESILKNLLPCLPLATAAPTRHPIHIKDGDWNEFRRKLTFYLKTLENAQAQQTTLSLAIF
REPORTED: no binding
//
BINDER: hIL-3 deletion mutant 820 (deletion 85-90) (ligand, not shown: heterologous N-terminal leader of the E. coli fusion (pGB/IL-336: 12 aa; pGB/IL-339: 15 aa)) APMTQTTPLKTSWVNCSNMIDEIITHLKQPPLPLLDFNNLNGEDQDILMENNLRRPNLEAFNRAVKSLQNASAIESILKNLLPCAPTRHPIHIKDGDWNEFRRKLTFYLKTLENAQAQQTTLSLAIF
REPORTED: no binding
